# Concentration interval where improvement of ratio X is found annotations
target: immobilized penicillin G acylase from E. coli (Escherichia coli, UniProt P06875); experiment: Enzymatic amoxicillin synthesis with immobilized Pen G acylase and various enzyme modulators (Example 8); assay type: biochemical; details: standard synthesis conditions; enzyme 13 U/ml
Sequence (P06875 27-235): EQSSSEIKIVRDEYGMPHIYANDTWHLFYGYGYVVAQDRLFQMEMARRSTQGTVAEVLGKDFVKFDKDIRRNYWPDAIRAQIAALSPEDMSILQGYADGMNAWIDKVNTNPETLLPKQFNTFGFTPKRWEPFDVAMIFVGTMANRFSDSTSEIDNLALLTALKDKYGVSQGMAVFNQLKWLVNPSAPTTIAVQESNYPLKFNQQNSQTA
Sequence (P06875 290-846): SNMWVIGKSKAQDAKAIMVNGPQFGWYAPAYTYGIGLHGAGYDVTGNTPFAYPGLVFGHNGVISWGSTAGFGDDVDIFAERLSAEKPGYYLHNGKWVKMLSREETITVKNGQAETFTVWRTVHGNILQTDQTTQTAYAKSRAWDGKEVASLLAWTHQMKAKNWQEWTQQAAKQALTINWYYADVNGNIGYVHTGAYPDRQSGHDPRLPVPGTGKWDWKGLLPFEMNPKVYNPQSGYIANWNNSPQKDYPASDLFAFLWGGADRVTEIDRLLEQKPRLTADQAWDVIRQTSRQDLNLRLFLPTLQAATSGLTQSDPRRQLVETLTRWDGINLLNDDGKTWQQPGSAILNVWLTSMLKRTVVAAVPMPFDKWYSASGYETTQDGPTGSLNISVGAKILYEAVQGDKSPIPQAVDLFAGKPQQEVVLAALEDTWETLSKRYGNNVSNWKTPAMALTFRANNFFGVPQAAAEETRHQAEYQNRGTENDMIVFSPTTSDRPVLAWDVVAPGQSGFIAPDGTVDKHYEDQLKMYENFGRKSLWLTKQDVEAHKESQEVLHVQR
READOUT_LABEL: Concentration interval where improvement of ratio X is found

MOLECULE	REPORTED_VALUE
CC1(C)S[C@@H]2[C@H](NC(=O)Cc3ccccc3)C(=O)N2[C@H]1C(=O)O	2 to 1000 µM
CC1(C)[C@H](C(=O)O)N2C(=O)[C@@H](NC(=O)Cc3ccccc3)[C@H]2[S+]1[O-] (stereo partly shown) [Penicillin G sulfoxide]	2 to 500 µM
O=S(=O)(F)Cc1ccccc1 [Phenylmethylsulfonyl fluoride]	0.2 to 10 µM
O=C(O)COc1ccc(O)cc1 [p-Hydroxyphenoxyacetic acid]	2 to 500 µM
CC1(C)S[C@@H]2[C@H](NC(=O)COc3ccccc3)C(=O)N2[C@H]1C(=O)O	2-1000 μm
O=C(O)CSc1ccccc1	2 to 1000 µM
O=[N+]([O-])c1ccc(O)c(CBr)c1 [2-Hydroxy-5-nitrobenzyl bromide]	10 to 500 µM
